# system name: T1, AD8P2 FRET peptide X-RVRRALPS-Z (not fully specified)
# T1 chain: RVRRALPS

protein: recombinant ADAM17 (protein) RADPDPMKNTCKLLVVADHRFYRYMGRGEESTTTNYLIELIDRVDDIYRNTSWDNAGFKGYGIQIEQIRILKSPQEVKPGEKHYNMAKSYPNEEKDAWDVKMLLEQFSFDIAEEASKVCLAHLFTYQDFDMGTLGLAYVGSPRANSHGGVCPKAYYSPVGKKNIYLNSGLTSTKNYGKTILTKEADLVTTHELGHNFGAEHDPDGLAECAPNEDQGGKYVMYPIAVSGDHENNKMFSNCSKQSIYKTIESKAQECFQERSNKV
Relative proteolytic activity: (-)

protein: soluble recombinant human ADAM8, active (processed) form (protein) RYVELYVVVDNAEFQMLGSEAAVRHRVLEVVNHVDKLYQKLNFRVVLVGLEIWNSQDRFHVSPDPSVTLENLLTWQARQRTRRHLHDNVQLITGVDFTGTTVGFARVSAMCSHSSGAVNQDHSKNPVGVACTMAHEMGHNLGMDHDENVQGCRCQERFEAGRCIMAGSIGSSFPRMFSDCSQAYLESFLERPQSVCLANAP
Relative proteolytic activity: ***

protein: soluble recombinant human ADAM15, active form (protein) DVVTETKTVELVIVADHSEAQKYRDFQHLLNRTLEVALLLDTFFRPLNVRVALVGLEAWTQRDLVEISPNPAVTLENFLHWRRAHLLPRLPHDSAQLVTGTSFSGPTVGMAIQNSICSPDFSGGVNMDHSTSILGVASSIAHELGHSLGLDHDLPGNSCPCPGPAPAKTCIMEASTDFLPGLNFSNCSRRALEKALLDGMGSCLFERL
Relative proteolytic activity: ***

protein: soluble recombinant human MDC-L, active form (protein) VQEHEKYIEYYLVLDNGEFKRYNENQDEIRKRVFEMANYVNMLYKKLNTHVALVGMEIWTDKDKIKITPNASFTLENFSKWRGSVLSRRKRHDIAQLITATELAGTTVGLAFMSTMCSPYSVGVVQDHSDNLLRVAGTMAHEMGHNFGMFHDDYSCKCPSTICVMDKALSFYIPTDFSSCSRLSYDKFFEDKLSNCLFNAP
Relative proteolytic activity: ***
